test system: TPA-treated mouse ears (edema); test: Mouse ear model of TPA-induced contact inflammation: edema inhibition (ear thickness); format: in vivo; conditions: in vivo activity, no dose stated
measured_quantity: edema inhibition (statement in words)

Some entries whose results are on file:
compound_structure=CC(C)=CCC/C(C)=C/CC/C(C)=C/CSC[C@H](NC(=O)CCC(F)(F)F)C(=O)NN measured_quantity="edema inhibition (statement in words)" readout_value="edema inhibition"
compound_structure=CC(=O)N[C@@H](CSC/C=C(\C)CC/C=C(\C)CCC=C(C)C)C(=O)NO measured_quantity="edema inhibition (statement in words)" readout_value="edema inhibition"
compound_structure=CC(=O)N[C@@H](CSC/C=C(\C)CC/C=C(\C)CCC=C(C)C)C(=O)NN measured_quantity="edema inhibition (statement in words)" readout_value="edema inhibition"
compound_structure=CNNC(=O)[C@H](CSC/C=C(\C)CC/C=C(\C)CCC=C(C)C)NC(C)=O measured_quantity="edema inhibition (statement in words)" readout_value="edema inhibition"

So for `CC(=O)N[C@@H](CSC/C=C(\C)CC/C=C(\C)CCC=C(C)C)C(=O)NNc1ccccc1` , the logged edema inhibition (statement in words) turned out to be edema inhibition
